assay: Plasma pharmacokinetics after i.m. injection proximal to the sciatic nerve; format: in vivo, C57BL/6 mice; details: female, C57BL/6, mouse, plasma, im, 40 μl of 6 mM
ENDPOINT_LABEL: AUC (µM·h)
Lab book: enter the figure in µM·h, no units written.

# AUC (compound: COc1cc(/C=C/C(=O)CC(=O)/C=C/c2ccc(O)c(OC)c2)ccc1O [curcumin] ) is 0.87
